experiment: BSK_4H_SRB: Viability Assessment in the BioMAP Diversity Plus: 4H Assay (AID 2283027); conditions: primary human endothelial cells (HUVEC);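 also: cells exposed to compound for 24 h before staining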
Activity calls are given as the source filed them. The calls were made as follows: active = hit-call score of the fitted dose curve at least 0.9, where 1 is the maximum; inactive = score below 0.9.
Select the correct class. Options are Y (active), N (inactive) and nothing else.

Exercise: Per the assay record, what outcome was assigned to COCC(C)O (stereo not drawn) ?
Key: N

Exercise: Per the assay record, what outcome was assigned to COCC(C)OCC(C)O (stereo not drawn) ?
Key: N

Exercise: Per the assay record, what outcome was assigned to CN(C)C=O ?
Key: N

Exercise: Per the assay record, what outcome was assigned to CCCCCCCCC(=O)O ?
Key: N

Exercise: Per the assay record, what outcome was assigned to Cc1oc(-c2ccccc2)nc1CCOc1ccc(C[C@H](Nc2ccccc2C(=O)c2ccccc2)C(=O)O)cc1 ?
Key: Y

Exercise: Per the assay record, what outcome was assigned to O=C(O)c1ccccc1C(c1ccc(O)cc1)c1ccc(O)cc1 ?
Key: N

Exercise: Per the assay record, what outcome was assigned to C[C@@H]1C[C@H]2[C@@H]3CCC4=CC(=O)C=C[C@]4(C)[C@@]3(F)[C@@H](O)C[C@]2(C)[C@@]1(O)C(=O)COP(=O)(O)O ?
Key: N

Exercise: Per the assay record, what outcome was assigned to CCCCCCCCCCCCCCCS(=O)(=O)Oc1ccccc1 ?
Key: N

---

target: mouse Estrogen Receptor alpha (Era), Esr1 (gene 13982); assay: NVS_NR_mERa: NovaScreen (NVS) Nuclear Receptor Binding Assay for mouse Estrogen Receptor alpha (Era) (AID 2283378);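 also: hit means loss of bound radioligand signal relative to DMSO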
Records with an inconclusive call do not appear. Activity calls are given as the source filed them. How the source made its calls: active means hit-call score of the fitted dose curve at least 0.9, where 1 is the maximum; inconclusive means response in the unintended direction; inactive means score below 0.9.
Select the correct class. Options are true = active, false = inactive and nothing else.

Exercise: Per the assay record, what outcome was assigned to c1ccc2cc3c(ccc4ccccc43)cc2c1 ?
Key: false

Exercise: Per the assay record, what outcome was assigned to O=C1OC2(c3ccccc31)c1cc(Br)c(O)c(Br)c1Oc1c2cc(Br)c(O)c1Br ?
Key: false

Exercise: Per the assay record, what outcome was assigned to O=C(O)Cc1cc(I)c(Oc2cc(I)c(O)c(I)c2)c(I)c1 ?
Key: false

Exercise: Per the assay record, what outcome was assigned to CCCOC(=O)c1ccc(O)cc1 ?
Key: true

Exercise: Per the assay record, what outcome was assigned to OCCC(F)(F)C(F)(F)C(F)(F)C(F)(F)C(F)(F)C(F)(F)C(F)(F)C(F)(F)F ?
Key: false

---

test: ATG_PBREM_CIS: Attagene CIS-FACTORIAL HepG2 Assay for human Phenobarbital-responsive Enhancer Module (PBREM) (AID 2282955); settings: HepG2 PBREM cis-reporter, Attagene multiplexed transcription; actives raise or lower the signal
Active and inactive are the calls of the source. Rule for the calls: active = hit-call score of the fitted dose curve at least 0.9, where 1 is the maximum; inactive = score below 0.9.
assay.readout: outcome

>>> assay_result("c1ccc2cc3c(ccc4ccccc43)cc2c1")
"inactive"
>>> assay_result("OC1CCCCC1")
"inactive"
>>> assay_result("CCCCCCC(=O)O")
"inactive"
>>> assay_result("CC[C@H](c1ccc(O)cc1)[C@@H](CC)c1ccc(O)cc1")
"inactive"
>>> assay_result("CCOC(=O)CC(O)(CC(=O)OCC)C(=O)OCC")
"inactive"
>>> assay_result("CN1CCC[C@H]1c1cccnc1")
"inactive"

CCc1nn(C2CCCCC2)c2cc(C3(C#N)CCC(C(=O)O)CC3)ccc12 (stereo not drawn) has a reported outcome of inactive

FC(F)(I)C(F)(F)C(F)(F)C(F)(F)C(F)(F)C(F)(F)I has a reported outcome of inactive

---

biological target: Myc proto-oncogene protein (Homo sapiens) (UniProt P01106); assay: ATG_Myc_CIS: Attagene CIS-FACTORIAL HepG2 Assay for human Myelocytomatosis (Myc) Proto-Oncogene Transcription Factor (AID 2282990); details: HepG2, Attagene cis-reporter transcription factor activity; actives raise or lower the signal
Sequence (P01106 whole entry, looked up): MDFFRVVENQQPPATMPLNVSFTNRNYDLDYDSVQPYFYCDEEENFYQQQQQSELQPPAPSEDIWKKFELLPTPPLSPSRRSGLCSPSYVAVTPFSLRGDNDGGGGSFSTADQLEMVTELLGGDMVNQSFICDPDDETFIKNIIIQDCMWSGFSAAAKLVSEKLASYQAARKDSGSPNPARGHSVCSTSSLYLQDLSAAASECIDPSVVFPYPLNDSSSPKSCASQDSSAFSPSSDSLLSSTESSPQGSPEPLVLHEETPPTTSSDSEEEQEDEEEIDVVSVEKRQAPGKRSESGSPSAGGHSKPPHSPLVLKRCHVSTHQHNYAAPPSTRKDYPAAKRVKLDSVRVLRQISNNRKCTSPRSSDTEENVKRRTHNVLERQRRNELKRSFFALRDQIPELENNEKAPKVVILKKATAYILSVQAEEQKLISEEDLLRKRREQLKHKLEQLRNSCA
Activity calls are given as the source filed them. The calls were made as follows: active = hit-call score of the fitted dose curve at least 0.9, where 1 is the maximum; inactive = score below 0.9.
Select the correct class. Options are active, inactive and nothing else.

Exercise: Per the assay record, what outcome was assigned to COC(=O)CCCCC(=O)OC ?
Key: inactive

Exercise: Per the assay record, what outcome was assigned to NC(=O)N1C(=O)C(C(=O)c2cc(Cl)cs2)c2cc(F)c(Cl)cc21 (configuration not stated) ?
Key: inactive

Exercise: Per the assay record, what outcome was assigned to CC(C)(C)c1ccc(O)c(C(C)(C)C)c1 ?
Key: inactive

Exercise: Per the assay record, what outcome was assigned to COc1cc(CCC(=O)CC(=O)CCc2ccc(O)c(OC)c2)ccc1O ?
Key: inactive

Exercise: Per the assay record, what outcome was assigned to Cc1cc(CCN2CCN(c3nsc4ccccc34)CC2)cc2c1NC(=O)CC2(C)C ?
Key: inactive

Exercise: Per the assay record, what outcome was assigned to CCc1ccc(CCOc2ccc(CC3SC(=O)NC3=O)cc2)nc1 (configuration not stated) ?
Key: inactive

Exercise: Per the assay record, what outcome was assigned to N#C[C@@H]1CC(F)(F)CN1C(=O)CNC1CC2CCC(C1)N2c1ncccn1 (some centres not stated) ?
Key: inactive

Exercise: Per the assay record, what outcome was assigned to O=C(OCCOCCOC(=O)c1ccccc1)c1ccccc1 ?
Key: inactive

Exercise: Per the assay record, what outcome was assigned to OCCC(F)(F)C(F)(F)C(F)(F)C(F)(F)C(F)(F)C(F)(F)F ?
Key: inactive

Exercise: Per the assay record, what outcome was assigned to CCCCCCC(=O)O ?
Key: inactive

Exercise: Per the assay record, what outcome was assigned to NCC(F)(F)C(F)(F)C(F)(F)C(F)(F)C(F)(F)C(F)(F)C(F)(F)F ?
Key: inactive

Exercise: Per the assay record, what outcome was assigned to CC1=C(/C=C/C(C)=C/C=C/C(C)=C/C(=O)O)C(C)(C)CCC1 ?
Key: inactive

Exercise: Per the assay record, what outcome was assigned to CC[C@H](c1ccc(O)cc1)[C@@H](CC)c1ccc(O)cc1 ?
Key: inactive

Exercise: Per the assay record, what outcome was assigned to CCCCC(CC)COC(=O)CCCCC(=O)OCC(CC)CCCC (configuration not stated) ?
Key: inactive

Exercise: Per the assay record, what outcome was assigned to OC1CCC(C2CCCCC2)CC1 (configuration not stated) ?
Key: inactive

Exercise: Per the assay record, what outcome was assigned to CCCCCCCCCCCCc1ccccc1S(=O)(=O)O ?
Key: inactive

Exercise: Per the assay record, what outcome was assigned to C#C[C@]1(O)CC[C@H]2[C@@H]3CCC4=CC(=O)CC[C@@H]4[C@H]3CC[C@@]21C ?
Key: inactive

Exercise: Per the assay record, what outcome was assigned to CCCCCCCCC(=O)O ?
Key: inactive

Exercise: Per the assay record, what outcome was assigned to COCC(C)OCC(C)O (configuration not stated) ?
Key: inactive

Exercise: Per the assay record, what outcome was assigned to CC(=O)NC1(c2cccc(F)c2)CCN(CC[C@@]2(c3ccc(Cl)c(Cl)c3)CN(c3ccccc3)C(=O)CO2)CC1 ?
Key: active

Exercise: Per the assay record, what outcome was assigned to CC(=O)CC(C)(C)O ?
Key: inactive

Exercise: Per the assay record, what outcome was assigned to c1ccc2c(c1)Cc1ccccc1-2 ?
Key: inactive

Exercise: Per the assay record, what outcome was assigned to CCCCCCCCOC(=O)CCCCCCCCC(=O)OCCCCCCCC ?
Key: inactive

Exercise: Per the assay record, what outcome was assigned to CCN(CC)CCNc1ccc(CNC=O)c2sc3ccc(OC)cc3c(=O)c12 ?
Key: active

Exercise: Per the assay record, what outcome was assigned to C=C(C)C(=O)OCCC(F)(F)C(F)(F)C(F)(F)C(F)(F)C(F)(F)C(F)(F)F ?
Key: inactive

Exercise: Per the assay record, what outcome was assigned to CCCCCCCCCCCCCCCS(=O)(=O)Oc1ccccc1 ?
Key: inactive

Exercise: Per the assay record, what outcome was assigned to NC(=O)N(O)[C@@H]1C=C[C@H](Oc2cccc(Oc3ccc(F)cc3)c2)C1 ?
Key: inactive

Exercise: Per the assay record, what outcome was assigned to CC(C)(C)c1cc(C(C)(C)C)c(O)c(C(C)(C)C)c1 ?
Key: inactive

Exercise: Per the assay record, what outcome was assigned to Cc1oc(-c2ccccc2)nc1CCOc1ccc(C[C@H](Nc2ccccc2C(=O)c2ccccc2)C(=O)O)cc1 ?
Key: active

Exercise: Per the assay record, what outcome was assigned to CCOC(=O)CC(O)(CC(=O)OCC)C(=O)OCC ?
Key: inactive

Exercise: Per the assay record, what outcome was assigned to FC(F)(I)C(F)(F)C(F)(F)C(F)(F)C(F)(F)C(F)(F)I ?
Key: inactive

Exercise: Per the assay record, what outcome was assigned to Oc1cccc(O)c1 ?
Key: inactive

Exercise: Per the assay record, what outcome was assigned to CN1CCC[C@H]1c1cccnc1 ?
Key: inactive

Exercise: Per the assay record, what outcome was assigned to ClC1=C(Cl)C(Cl)(Cl)C(Cl)=C1Cl ?
Key: inactive

Exercise: Per the assay record, what outcome was assigned to CCCCCCCC(=O)O ?
Key: inactive

Exercise: Per the assay record, what outcome was assigned to CCCCCCCCCCCCN1CCCC1=O ?
Key: inactive

Exercise: Per the assay record, what outcome was assigned to CC(O)CO (configuration not stated) ?
Key: inactive
